target desc: ACE (Homo sapiens)
Sequence (P12821 30-1306, species assumed): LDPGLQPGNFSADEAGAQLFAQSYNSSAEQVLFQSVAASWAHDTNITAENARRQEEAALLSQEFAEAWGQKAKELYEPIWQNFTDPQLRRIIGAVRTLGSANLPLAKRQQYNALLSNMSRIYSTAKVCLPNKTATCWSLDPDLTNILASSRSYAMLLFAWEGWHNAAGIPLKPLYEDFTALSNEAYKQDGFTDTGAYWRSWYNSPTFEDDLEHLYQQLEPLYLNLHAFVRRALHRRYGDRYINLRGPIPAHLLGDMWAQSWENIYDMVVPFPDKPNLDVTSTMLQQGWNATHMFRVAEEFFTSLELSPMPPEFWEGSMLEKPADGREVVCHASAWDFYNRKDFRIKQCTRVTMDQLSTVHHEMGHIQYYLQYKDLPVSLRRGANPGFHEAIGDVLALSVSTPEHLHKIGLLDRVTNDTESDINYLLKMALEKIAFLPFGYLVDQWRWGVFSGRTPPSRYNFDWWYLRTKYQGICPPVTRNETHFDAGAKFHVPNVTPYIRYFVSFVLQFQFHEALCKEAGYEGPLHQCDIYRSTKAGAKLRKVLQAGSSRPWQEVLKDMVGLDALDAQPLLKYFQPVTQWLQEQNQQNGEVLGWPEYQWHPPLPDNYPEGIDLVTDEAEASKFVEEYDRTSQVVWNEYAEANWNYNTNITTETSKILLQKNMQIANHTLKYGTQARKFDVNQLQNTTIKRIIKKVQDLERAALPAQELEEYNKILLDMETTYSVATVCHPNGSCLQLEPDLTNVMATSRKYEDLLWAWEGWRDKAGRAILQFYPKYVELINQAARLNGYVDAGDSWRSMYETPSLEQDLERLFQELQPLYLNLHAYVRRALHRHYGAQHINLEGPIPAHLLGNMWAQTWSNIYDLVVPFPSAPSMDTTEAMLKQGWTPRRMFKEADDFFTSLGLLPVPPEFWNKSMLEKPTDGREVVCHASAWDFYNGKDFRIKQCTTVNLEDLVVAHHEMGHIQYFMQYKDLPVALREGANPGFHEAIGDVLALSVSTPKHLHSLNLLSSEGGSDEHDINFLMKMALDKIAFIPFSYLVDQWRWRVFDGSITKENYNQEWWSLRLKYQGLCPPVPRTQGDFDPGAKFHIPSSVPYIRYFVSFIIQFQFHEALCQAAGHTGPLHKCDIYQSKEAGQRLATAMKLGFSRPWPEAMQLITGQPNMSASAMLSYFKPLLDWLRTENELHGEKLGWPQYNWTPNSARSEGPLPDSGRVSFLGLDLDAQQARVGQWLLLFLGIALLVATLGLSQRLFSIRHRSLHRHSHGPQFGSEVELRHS
method description: Assay of ACE inhibitory activity (HHL hydrolysis, HPLC of hippuric acid)
Assay type: biochemical
particulars: in vitro; substrate HHL, borate buffer, 37 °C, 5 min coincubation with HHL, 30 min reaction, HCl stop; 7 concentrations; HPLC C18 at 228 nm; GraphPad Prism 7.0
Residues, ends and D or L forms follow the SMILES beside them.
Threshold 40 µM: IC50 strictly smaller gives Condition met, otherwise Condition not met.

[[record]]
compound = "NC(=O)C[C@H](NC(=O)[C@H](Cc1c[nH]c2ccccc12)NC(=O)[C@@H](N)Cc1c[nH]c2ccccc12)C(=O)N[C@@H](Cc1c[nH]c2ccccc12)C(=O)O [WWNW] (H-WWNW-OH)"
class_label = "Condition met"

[[record]]
compound = "N[C@@H](Cc1c[nH]c2ccccc12)C(=O)N[C@@H](Cc1ccccc1)C(=O)N[C@@H](CO)C(=O)N[C@@H](Cc1c[nH]c2ccccc12)C(=O)O [WFSW] (H-WFSW-OH)"
class_label = "Condition not met"

[[record]]
compound = "N[C@@H](Cc1c[nH]c2ccccc12)C(=O)N[C@@H](Cc1c[nH]c2ccccc12)C(=O)N[C@@H](CC(=O)O)C(=O)N[C@@H](Cc1c[nH]c2ccccc12)C(=O)O [WWDW] (H-WWDW-OH)"
class_label = "Condition met"

[[record]]
compound = "CC(C)[C@H](NC(=O)[C@H](CCCNC(=N)N)NC(=O)[C@H](Cc1ccccc1)NC(=O)[C@@H](N)Cc1c[nH]c2ccccc12)C(=O)O [WFRV] (H-WFRV-OH)"
class_label = "Condition met"

[[record]]
compound = "NCC(=O)NCC(=O)N[C@@H](CO)C(=O)NCC(=O)O [GGSG] (H-GGSG-OH)"
class_label = "Condition not met"

[[record]]
compound = "N=C(N)NCCC[C@H](N)C(=O)N[C@@H](Cc1c[nH]c2ccccc12)C(=O)N[C@@H](Cc1c[nH]c2ccccc12)C(=O)N[C@@H](CC(=O)O)C(=O)O [RWWD] (H-RWWD-OH)"
class_label = "Condition not met"

[[record]]
compound = "N=C(N)NCCC[C@H](NC(=O)[C@@H](N)Cc1c[nH]c2ccccc12)C(=O)N[C@@H](Cc1ccccc1)C(=O)N[C@@H](Cc1ccccc1)C(=O)O [WRFF] (H-WRFF-OH)"
class_label = "Condition not met"

[[record]]
compound = "N=C(N)NCCC[C@H](NC(=O)[C@@H](N)Cc1c[nH]c2ccccc12)C(=O)N[C@@H](CCC(N)=O)C(=O)N[C@@H](Cc1ccccc1)C(=O)O [WRQF] (H-WRQF-OH)"
class_label = "Condition met"

[[record]]
compound = "C[C@@H](O)[C@H](NC(=O)[C@H](Cc1c[nH]c2ccccc12)NC(=O)[C@@H](N)Cc1c[nH]c2ccccc12)C(=O)N[C@@H](Cc1ccc(O)cc1)C(=O)O [WWTY] (H-WWTY-OH)"
class_label = "Condition met"

[[record]]
compound = "N[C@@H](CO)C(=O)NCC(=O)NCC(=O)NCC(=O)O [SGGG] (H-SGGG-OH)"
class_label = "Condition not met"

[[record]]
compound = "N=C(N)NCCC[C@H](NC(=O)[C@@H](N)CCCNC(=N)N)C(=O)N[C@@H](Cc1ccc(O)cc1)C(=O)N[C@@H](CCC(N)=O)C(=O)O [RRYQ] (H-RRYQ-OH)"
class_label = "Condition not met"

[[record]]
compound = "NCCCC[C@H](NC(=O)[C@H](Cc1c[nH]c2ccccc12)NC(=O)[C@H](Cc1ccc(O)cc1)NC(=O)[C@@H](N)Cc1ccc(O)cc1)C(=O)O [YYWK] (H-YYWK-OH)"
class_label = "Condition met"


Cited source for all entries: paper PMC10137938
